- Measurement target: PCSK9 (Homo sapiens, UniProt Q8NBP7)
- Sequence (Q8NBP7 153-692): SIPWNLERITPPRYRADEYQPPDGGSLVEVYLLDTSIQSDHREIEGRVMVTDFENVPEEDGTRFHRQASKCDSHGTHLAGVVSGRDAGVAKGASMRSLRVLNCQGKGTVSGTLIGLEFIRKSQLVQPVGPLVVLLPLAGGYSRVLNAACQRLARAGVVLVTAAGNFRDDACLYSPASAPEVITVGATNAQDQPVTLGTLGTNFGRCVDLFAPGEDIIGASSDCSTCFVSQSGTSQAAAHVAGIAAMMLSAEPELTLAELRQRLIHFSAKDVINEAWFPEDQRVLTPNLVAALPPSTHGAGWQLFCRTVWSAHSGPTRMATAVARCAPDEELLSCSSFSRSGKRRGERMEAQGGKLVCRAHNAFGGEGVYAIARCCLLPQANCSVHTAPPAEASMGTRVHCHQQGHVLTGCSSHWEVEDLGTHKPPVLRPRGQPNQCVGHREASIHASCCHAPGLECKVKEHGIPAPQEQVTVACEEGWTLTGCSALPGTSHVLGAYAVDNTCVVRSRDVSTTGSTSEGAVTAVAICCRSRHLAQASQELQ
- Experimental details: BODIPY-LDL uptake assay in HepG2 cells
- Assay type: cell-based
- Run conditions: 10 μM test compound, 5 μg/ml PCSK9, BODIPY-LDL
Please go through the items and note down their % increase in LDL Uptake.

Prompt: Find the measured % increase in LDL Uptake of O=C(c1ccc(C2(O)COC2)cc1)N1CCC(c2cc(F)cc(C(F)(F)F)c2)CC1 [Example 14] and report it.
Completion: 20%

Prompt: Find the measured % increase in LDL Uptake of COC1(c2cccc(C(=O)N3CC4CN(c5ccc(C(F)(F)F)cc5)CC4C3)c2)COC1 (centres unmarked) [Example 56] and report it.
Completion: 344%

Prompt: Find the measured % increase in LDL Uptake of COC1(c2ccc(C(=O)N3CCC(c4ccc(C(F)(F)F)cc4)CC3)cc2)CCOCC1 [Example 143] and report it.
Completion: 41%

Prompt: Find the measured % increase in LDL Uptake of COC1(c2ccc(C(=O)N3CCC(c4ccc(C(F)(F)F)cc4)CC3)cc2)CCNC1 (centres unmarked) [Example 153] and report it.
Completion: 47%

Prompt: Find the measured % increase in LDL Uptake of COC1(c2cccc(C(=O)N3CC4CN(c5ccc(C(F)(F)F)cn5)CC4C3)c2)COC1 (centres unmarked) [Example 208] and report it.
Completion: 14%

Prompt: Find the measured % increase in LDL Uptake of CCOC1(c2ccc(C(=O)N3CCCC(c4ccc(C(F)(F)F)cc4)C3)cc2)COC1 (centres unmarked) [Example 123] and report it.
Completion: 14%

Prompt: Find the measured % increase in LDL Uptake of COC(=O)c1ccc(C2(O)CC3CN(C(=O)c4ccc(C5(O)COC5)cc4)CC3C2)cc1 (centres unmarked) [Example 198] and report it.
Completion: 25%

Prompt: Find the measured % increase in LDL Uptake of O=C(c1ccc(C2(O)COC2)cc1)N1CCCC(c2ccc(C(F)(F)F)cc2)C1 (centres unmarked) [Example 34] and report it.
Completion: 86%

###

- Measurement target: PCSK9 (Homo sapiens)
- Experimental details: BODIPY-LDL uptake assay in HepG2 cells
- Format: cell-based
- Run conditions: 1 μM test compound, 5 μg/ml PCSK9, BODIPY-LDL
- Description: BODIPY-LDL Uptake Assay in HepG2 Cells. […] In the LDL uptake assay, HepG2 cells were seeded at a density of 6×10^4 cells/well in a 96-well plate. […] Then the fluorescence of the cells in PBS was measured using TECAN multimode reader (Excitation: 485 nm and Emission: 520 nm). The readings were taken in triplicate and the final values were normalized with the protein concentration from respective wells. […] The percentage increase in LDL uptake for the test compounds were calculated using these values.
Please go through the items and note down their % increase in LDL Uptake.
# number only, unit % dropped from output

Prompt: Find the measured % increase in LDL Uptake of O=C(c1ccc(C2(O)CSC2)cc1)N1CC2CN(c3ccc(C(F)(F)F)cc3)CC2C1 (stereo not shown) [Example 146] and report it.
Completion: 53

Prompt: Find the measured % increase in LDL Uptake of COC1(c2cccc(C(=O)N3CC4CN(c5ccc(C(F)(F)F)cc5)CC4C3)c2)COC1 (stereo not shown) [Example 56] and report it.
Completion: 55

Prompt: Find the measured % increase in LDL Uptake of COC1(c2ccc(C(=O)N3CCC(c4cccc(C(F)(F)F)c4)CC3)cc2)COC1 [Example 37] and report it.
Completion: 31

Prompt: Find the measured % increase in LDL Uptake of COC1(c2cccc(C(=O)N3CC4=C(C3)CN(c3ccc(C(F)(F)F)cc3)C4)c2)COC1 [Example 97] and report it.
Completion: 0

Prompt: Find the measured % increase in LDL Uptake of O=C(c1ccc(C2(O)COC2)cc1)N1CCC2(CCN(c3ccc(C(F)(F)F)cc3)CC2)C1 [Example 186] and report it.
Completion: 17

Prompt: Find the measured % increase in LDL Uptake of O=C(c1cccc(C2(O)COC2)c1)N1CCC(c2ccc(C(F)F)cc2)CC1 [Example 66] and report it.
Completion: 0

Prompt: Find the measured % increase in LDL Uptake of [2H]C([2H])([2H])OC1(c2ccc(C(=O)N3CCC(c4ccc(C(F)(F)F)cc4)CC3)cc2)COC1 [Example 76] and report it.
Completion: 10

Prompt: Find the measured % increase in LDL Uptake of COC1(c2ccc(C(=O)N3Cc4cn(-c5ccc(C(F)(F)F)cc5)nc4C3)cc2)COC1 [Example 90] and report it.
Completion: 3

Prompt: Find the measured % increase in LDL Uptake of O=C(c1ccc(C2(O)COC2)cc1)N1Cc2cn(-c3ccc(C(F)(F)F)cc3)cc2C1 [Example 93] and report it.
Completion: 0

Prompt: Find the measured % increase in LDL Uptake of COc1ccc(C2CCN(C(=O)c3ccc(C4(O)COC4)cc3)CC2)cc1F [Example 28] and report it.
Completion: 0

Prompt: Find the measured % increase in LDL Uptake of COC1(c2ccc(C(=O)N3CCC(c4ccc(C(F)F)cc4)CC3)cc2)COC1 [Example 68] and report it.
Completion: 0

Prompt: Find the measured % increase in LDL Uptake of [2H]C([2H])([2H])OC1(c2ccc(C(=O)N3CC4CN(c5ccc(C(F)(F)F)cc5)CC4C3)cc2)COC1 (stereo not shown) [Example 134] and report it.
Completion: 3

Prompt: Find the measured % increase in LDL Uptake of COC1(c2ccc(C(=O)N3CCN(c4ccc(C(F)(F)F)cc4)CC3)cc2)COC1 [Example 53] and report it.
Completion: 4

Prompt: Find the measured % increase in LDL Uptake of COC1(c2ccc(C(=O)N3CCC(c4ccc(C(F)(F)F)nc4)CC3)cc2)COC1 [Example 213] and report it.
Completion: 0

Prompt: Find the measured % increase in LDL Uptake of O=C(c1cccc(C2(O)COC2)c1)N1CC2CN(c3ccc(C(F)(F)F)cn3)CC2C1 (stereo not shown) [Example 210] and report it.
Completion: 0

Prompt: Find the measured % increase in LDL Uptake of CC(C)OC1(c2ccc(C(=O)N3CCC(c4ccc(C(F)(F)F)cc4)CC3)cc2)COC1 [Example 44] and report it.
Completion: 31

###

- Measurement target: PCSK9 (Homo sapiens)
- Experimental details: BODIPY-LDL uptake assay in HepG2 cells
- Assay type: cell-based
- Run conditions: 30 μM test compound, 5 μg/ml PCSK9, BODIPY-LDL
Measurement type: % increase in LDL Uptake (%)
# number only, unit % dropped from output

Prompt: Find the measured % increase in LDL Uptake of COc1ccc(C2CCN(C(=O)c3ccc(C4(O)COC4)cc3)CC2)cc1 and report it.
Completion: 38

Prompt: Find the measured % increase in LDL Uptake of [2H]C([2H])([2H])OC1(c2cccc(C(=O)N3CCC(c4ccc(C(F)F)cc4)CC3)c2)COC1 and report it.
Completion: 37

Prompt: Find the measured % increase in LDL Uptake of O=C(c1cccc(C2(O)COC2)c1)N1CCC2(CC1)CCN(c1ccc(C(F)(F)F)cc1)CC2 and report it.
Completion: 0

Prompt: Find the measured % increase in LDL Uptake of O=C(c1ccc(C2(O)COC2)cc1)N1CCN(c2ccc(C(F)(F)F)nc2)CC1 and report it.
Completion: 128

###

- Measurement target: PCSK9 (Homo sapiens, UniProt Q8NBP7)
- Experimental details: BODIPY-LDL uptake assay in HepG2 cells
- Assay type: cell-based
- Run conditions: 30 μM test compound, 5 μg/ml PCSK9, BODIPY-LDL
Param threshold (40%) applies to % increase in LDL Uptake; output condition met when value >= threshold, condition not met when value < threshold.

Prompt: Kindly determine if % increase in LDL Uptake recorded for COC1(c2ccc(C(=O)N3CCC(c4cccc(C(F)(F)F)c4)CC3)cc2)COC1 is above or exactly 40%.
Completion: condition not met

Prompt: Kindly determine if % increase in LDL Uptake recorded for COC1(c2ccc(C(=O)N3Cc4cn(-c5ccc(C(F)(F)F)cc5)nc4C3)cc2)COC1 is above or exactly 40%.
Completion: condition met

Prompt: Kindly determine if % increase in LDL Uptake recorded for O=C(c1ccc(C2(O)COC2)cc1)N1CCN(c2ccc(C(F)(F)F)cc2)CC1 is above or exactly 40%.
Completion: condition met

Prompt: Kindly determine if % increase in LDL Uptake recorded for CCOC1(c2ccc(C(=O)N3CC4=C(C3)CN(c3ccc(C(F)(F)F)cc3)C4)cc2)COC1 is above or exactly 40%.
Completion: condition not met

Prompt: Kindly determine if % increase in LDL Uptake recorded for COC1(c2ccc(C(=O)N3CCCC(c4ccc(C(F)(F)F)cc4)C3)cc2)COC1 (stereo not drawn) is above or exactly 40%.
Completion: condition met

Prompt: Kindly determine if % increase in LDL Uptake recorded for COC1(c2ccc(C(=O)N3CC4=C(C3)CN(c3ccc(C(F)(F)F)cc3)C4)cc2)COC1 is above or exactly 40%.
Completion: condition not met
